Measured % activity values are reported for all entries that follow.
Molecular target: human calcium receptor (Homo sapiens, UniProt P41180, R990G)
Construct: expressed in transfected cells; host or cells: HEK 293
Sequence (P41180 20-1078 R990G): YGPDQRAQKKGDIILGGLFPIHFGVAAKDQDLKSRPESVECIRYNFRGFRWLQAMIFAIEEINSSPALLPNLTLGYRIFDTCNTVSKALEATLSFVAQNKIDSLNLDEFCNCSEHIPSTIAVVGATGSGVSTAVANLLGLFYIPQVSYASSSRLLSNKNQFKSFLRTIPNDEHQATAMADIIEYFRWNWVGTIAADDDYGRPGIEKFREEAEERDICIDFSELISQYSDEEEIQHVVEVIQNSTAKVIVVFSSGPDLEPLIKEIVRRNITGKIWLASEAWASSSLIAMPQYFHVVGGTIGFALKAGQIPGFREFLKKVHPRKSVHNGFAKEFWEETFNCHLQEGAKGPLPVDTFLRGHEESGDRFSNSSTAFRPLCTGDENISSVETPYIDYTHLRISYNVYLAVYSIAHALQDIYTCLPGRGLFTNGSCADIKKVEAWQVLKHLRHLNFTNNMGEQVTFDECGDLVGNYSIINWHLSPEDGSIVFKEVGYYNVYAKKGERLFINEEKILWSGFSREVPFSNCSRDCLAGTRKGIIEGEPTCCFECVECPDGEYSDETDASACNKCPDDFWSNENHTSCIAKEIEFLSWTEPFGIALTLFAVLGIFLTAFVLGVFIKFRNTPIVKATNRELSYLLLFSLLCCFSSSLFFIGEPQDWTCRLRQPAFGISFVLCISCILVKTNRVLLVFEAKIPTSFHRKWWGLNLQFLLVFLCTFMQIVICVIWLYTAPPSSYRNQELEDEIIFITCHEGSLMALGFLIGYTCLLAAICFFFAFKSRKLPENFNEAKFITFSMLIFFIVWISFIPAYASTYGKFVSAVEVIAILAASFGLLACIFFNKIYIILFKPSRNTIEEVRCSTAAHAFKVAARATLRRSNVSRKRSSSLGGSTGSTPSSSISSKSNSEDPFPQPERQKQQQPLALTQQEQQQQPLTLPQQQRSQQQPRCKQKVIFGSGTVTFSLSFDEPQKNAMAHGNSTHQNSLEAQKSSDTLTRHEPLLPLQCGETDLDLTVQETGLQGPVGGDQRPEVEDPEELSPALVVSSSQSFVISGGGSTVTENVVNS
Assay: increases in [Ca^2+ ]i in HEK-293 cells expressing the human calcium receptor (fura-2 loaded HEK 293/pHuPCaR4.0 cells), % activity
Type: cell-based
Conditions: 330 ng/mL
Enter your answer as a number in %; do not include the unit.

Solved cases below.
[
  {
    "compound": "Cc1cc(C(C)NC(C)c2cccc3ccccc23)ccc1OCc1ccccc1 (mixture of isomers) [Compound 25X]",
    "valueMeasured": 94
  },
  {
    "compound": "COc1cccc(C(C)NCCCc2ccccc2F)c1 (stereo not drawn)",
    "valueMeasured": 68
  },
  {
    "compound": "CSc1cccc(C(C)NCCCc2ccccc2Cl)c1 (stereo not drawn)",
    "valueMeasured": 98
  },
  {
    "compound": "Cc1ccc(CNCc2cccc3c(Br)cccc23)cc1C [Compound 23D]",
    "valueMeasured": 66
  },
  {
    "compound": "COc1ccc([C@H](C)N[C@H](C)c2cccc3ccccc23)cc1C [Compound 25U]",
    "valueMeasured": 107
  }
]

Lab request: please report % activity under test system human calcium receptor (Homo sapiens, UniProt P41180, R990G) for C=CCOc1cccc([C@@H](C)NCc2ccc3ccccc3c2)c1 [Compound 10Z]
96

Lab request: please report % activity under test system human calcium receptor (Homo sapiens, UniProt P41180, R990G) for COc1ccc(CCNC(C)c2cccc3ccccc23)cc1 (stereo not drawn) [Compound 15J]
75

Lab request: please report % activity under test system human calcium receptor (Homo sapiens, UniProt P41180, R990G) for `C[C@@H](NCc1ccc2ccccc2c1)c1cccc2ccccc12`
104

Lab request: please report % activity under test system human calcium receptor (Homo sapiens, UniProt P41180, R990G) for CC(=O)c1cccc(C(C)NCCCc2ccccc2)c1 (stereo not drawn)
76
